Target: NMDA receptor (noncompetitive MK-801 site), rat forebrain
Details: read-out: [3H]MK-801 Ki, forebrain
pKi: −log10 of the molar value.
observed.property: pKi

Value of pKi reported for the compound O=C1CC[C@@]2(O)[C@H]3Cc4ccc(O)c5c4[C@@]2(CCN3CC2CC2)[C@H]1O5 [Naltrexone] is < 4.00

The measured values listed here are drawn from patent US6008258A.
